Origin of measurements: ChEMBL document CHEMBL3259533

Tested on: Mus musculus
Test: Analgesic activity in C57Bl/6 mouse assessed as inhibition of Bv8-induced decrease in latencies to paw withdrawal administered as intraplantar route at 48 degC after 15 to 180 mins
Type: functional, organism-based
Lab note: cut-off is 40 pmol. Strictly less in EC50 is met. Exactly 40 pmol or more is not met.

COc1ccc(Cn2c(=O)nc(NCCNC(=N)N)n(Cc3ccccc3)c2=O)cc1 :: not met
COc1ccc(Cn2c(NCCNC(=N)N)nc(=O)n(Cc3ccc([N+](=O)[O-])cc3)c2=O)cc1 :: not met
Cc1ccc(Cn2c(=O)nc(NCCNC(=N)N)n(Cc3ccc(Cl)c(Cl)c3)c2=O)cc1 :: met
COc1ccc(Cn2c(=O)nc(NCCNC(=N)N)n(Cc3ccc(C)cc3)c2=O)cc1 :: met

I'd appreciate it if you could check whether `COc1ccc(Cn2c(NCCNC(=N)N)nc(=O)n(Cc3ccc(Br)cc3)c2=O)cc1` has EC50 smaller than 40 pmol.
met

I'd appreciate it if you could check whether `COc1ccc(Cn2c(=O)nc(NCCNC(=N)N)n(Cc3ccc(F)cc3)c2=O)cc1` has EC50 smaller than 40 pmol.
met

I'd appreciate it if you could check whether `COc1ccc(Cn2c(=O)nc(NCCNC(=N)N)n(Cc3ccc(Br)cc3)c2=O)cc1` has EC50 smaller than 40 pmol.
met

I'd appreciate it if you could check whether `COc1ccc(Cn2c(NCCNC(=N)N)nc(=O)n(Cc3ccc(F)cc3)c2=O)cc1` has EC50 smaller than 40 pmol.
met
